Taken from BigSolDB 2.1.

SETTINGS: in ethanol, 302.95 K
RESULT TYPE: solubility (mole fraction)
Reply with the value as a number alone.

The recorded solubility (mole fraction) for entry O=C(O)/C=C/c1ccccc1Cl equals 0.00722

---

SETTINGS: in methanol, 283.45 K
RESULT TYPE: solubility (mole fraction)
Reply with the value as a number alone.

The recorded solubility (mole fraction) for entry O=C(O)/C=C/c1ccccc1Cl equals 0.00273

---

SETTINGS: in 2-pentanone, 278.45 K
RESULT TYPE: solubility (mole fraction)

The recorded solubility (mole fraction) for entry O=C(O)/C=C/c1ccccc1Cl equals 0.00526

---

SETTINGS: in methanol, 316.55 K
RESULT TYPE: solubility (mole fraction)

The recorded solubility (mole fraction) for entry O=C(O)/C=C/c1ccccc1Cl equals 0.00857

---

SETTINGS: in 2-butanone, 317.05 K
RESULT TYPE: solubility (mole fraction)
Reply with the value as a number alone.

The recorded solubility (mole fraction) for entry O=C(O)/C=C/c1ccccc1Cl equals 0.0164

---

SETTINGS: in isobutanol, 302.95 K
RESULT TYPE: solubility (mole fraction)
Reply with the value as a number alone.

The recorded solubility (mole fraction) for entry O=C(O)/C=C/c1ccccc1Cl equals 0.00489

---

SETTINGS: in acetonitrile, 272.15 K
RESULT TYPE: solubility (mole fraction)
Reply with the value as a number alone.

The recorded solubility (mole fraction) for entry O=C(O)/C=C/c1ccccc1Cl equals 0.000253

---

SETTINGS: in n-butanol, 272.15 K
RESULT TYPE: solubility (mole fraction)
Reply with the value as a number alone.

The recorded solubility (mole fraction) for entry O=C(O)/C=C/c1ccccc1Cl equals 0.00231

---

SETTINGS: in 2-butanone, 297.75 K
RESULT TYPE: solubility (mole fraction)
Reply with the value as a number alone.

The recorded solubility (mole fraction) for entry O=C(O)/C=C/c1ccccc1Cl equals 0.00968

---

SETTINGS: in isopentanol, 307.35 K
RESULT TYPE: solubility (mole fraction)

The recorded solubility (mole fraction) for entry O=C(O)/C=C/c1ccccc1Cl equals 0.00821

---

SETTINGS: in acetone, 297.75 K
RESULT TYPE: solubility (mole fraction)
Reply with the value as a number alone.

The recorded solubility (mole fraction) for entry O=C(O)/C=C/c1ccccc1Cl equals 0.00907

---

SETTINGS: in isopentanol, 278.45 K
RESULT TYPE: solubility (mole fraction)
Reply with the value as a number alone.

The recorded solubility (mole fraction) for entry O=C(O)/C=C/c1ccccc1Cl equals 0.00259

---

SETTINGS: in 2-pentanone, 297.75 K
RESULT TYPE: solubility (mole fraction)
Reply with the value as a number alone.

The recorded solubility (mole fraction) for entry O=C(O)/C=C/c1ccccc1Cl equals 0.0096

---

SETTINGS: in 2-butanone, 278.45 K
RESULT TYPE: solubility (mole fraction)
Reply with the value as a number alone.

The recorded solubility (mole fraction) for entry O=C(O)/C=C/c1ccccc1Cl equals 0.00535

---

SETTINGS: in n-butanol, 278.45 K
RESULT TYPE: solubility (mole fraction)
Reply with the value as a number alone.

The recorded solubility (mole fraction) for entry O=C(O)/C=C/c1ccccc1Cl equals 0.00288

---

SETTINGS: in methanol, 307.35 K
RESULT TYPE: solubility (mole fraction)
Reply with the value as a number alone.

The recorded solubility (mole fraction) for entry O=C(O)/C=C/c1ccccc1Cl equals 0.0064

---

SETTINGS: in ethyl formate, 321.45 K
RESULT TYPE: solubility (mole fraction)
Reply with the value as a number alone.

The recorded solubility (mole fraction) for entry O=C(O)/C=C/c1ccccc1Cl equals 0.00688

---

SETTINGS: in methanol, 272.15 K
RESULT TYPE: solubility (mole fraction)
Reply with the value as a number alone.

The recorded solubility (mole fraction) for entry O=C(O)/C=C/c1ccccc1Cl equals 0.00174

---

SETTINGS: in ethanol, 283.45 K
RESULT TYPE: solubility (mole fraction)
Reply with the value as a number alone.

The recorded solubility (mole fraction) for entry O=C(O)/C=C/c1ccccc1Cl equals 0.0036

---

SETTINGS: in ethyl formate, 292.75 K
RESULT TYPE: solubility (mole fraction)
Reply with the value as a number alone.

The recorded solubility (mole fraction) for entry O=C(O)/C=C/c1ccccc1Cl equals 0.00232

---

SETTINGS: in methanol, 292.85 K
RESULT TYPE: solubility (mole fraction)

The recorded solubility (mole fraction) for entry O=C(O)/C=C/c1ccccc1Cl equals 0.00387

---

SETTINGS: in toluene, 307.05 K
RESULT TYPE: solubility (mole fraction)
Reply with the value as a number alone.

The recorded solubility (mole fraction) for entry O=C(O)/C=C/c1ccccc1Cl equals 0.00119

---

SETTINGS: in methyl acetate, 321.45 K
RESULT TYPE: solubility (mole fraction)

The recorded solubility (mole fraction) for entry O=C(O)/C=C/c1ccccc1Cl equals 0.0109

---

SETTINGS: in n-propanol, 278.45 K
RESULT TYPE: solubility (mole fraction)
Reply with the value as a number alone.

The recorded solubility (mole fraction) for entry O=C(O)/C=C/c1ccccc1Cl equals 0.00267

---

SETTINGS: in acetone, 312.35 K
RESULT TYPE: solubility (mole fraction)
Reply with the value as a number alone.

The recorded solubility (mole fraction) for entry O=C(O)/C=C/c1ccccc1Cl equals 0.014

---

SETTINGS: in n-pentanol, 321.55 K
RESULT TYPE: solubility (mole fraction)
Reply with the value as a number alone.

The recorded solubility (mole fraction) for entry O=C(O)/C=C/c1ccccc1Cl equals 0.0162

---

SETTINGS: in 2-pentanone, 321.45 K
RESULT TYPE: solubility (mole fraction)
Reply with the value as a number alone.

The recorded solubility (mole fraction) for entry O=C(O)/C=C/c1ccccc1Cl equals 0.0182

---

SETTINGS: in 2-butanone, 302.55 K
RESULT TYPE: solubility (mole fraction)
Reply with the value as a number alone.

The recorded solubility (mole fraction) for entry O=C(O)/C=C/c1ccccc1Cl equals 0.0111

---

SETTINGS: in ethyl acetate, 288.35 K
RESULT TYPE: solubility (mole fraction)
Reply with the value as a number alone.

The recorded solubility (mole fraction) for entry O=C(O)/C=C/c1ccccc1Cl equals 0.00417

---

SETTINGS: in n-pentanol, 272.15 K
RESULT TYPE: solubility (mole fraction)
Reply with the value as a number alone.

The recorded solubility (mole fraction) for entry O=C(O)/C=C/c1ccccc1Cl equals 0.00268

---

SETTINGS: in ethyl acetate, 292.75 K
RESULT TYPE: solubility (mole fraction)
Reply with the value as a number alone.

The recorded solubility (mole fraction) for entry O=C(O)/C=C/c1ccccc1Cl equals 0.00484

---

SETTINGS: in ethanol, 307.35 K
RESULT TYPE: solubility (mole fraction)
Reply with the value as a number alone.

The recorded solubility (mole fraction) for entry O=C(O)/C=C/c1ccccc1Cl equals 0.00833

---

SETTINGS: in isopentanol, 321.55 K
RESULT TYPE: solubility (mole fraction)

The recorded solubility (mole fraction) for entry O=C(O)/C=C/c1ccccc1Cl equals 0.014

---

SETTINGS: in isopropanol, 283.45 K
RESULT TYPE: solubility (mole fraction)
Reply with the value as a number alone.

The recorded solubility (mole fraction) for entry O=C(O)/C=C/c1ccccc1Cl equals 0.00309

---

SETTINGS: in isobutanol, 312.05 K
RESULT TYPE: solubility (mole fraction)
Reply with the value as a number alone.

The recorded solubility (mole fraction) for entry O=C(O)/C=C/c1ccccc1Cl equals 0.00724

---

SETTINGS: in isobutanol, 307.35 K
RESULT TYPE: solubility (mole fraction)
Reply with the value as a number alone.

The recorded solubility (mole fraction) for entry O=C(O)/C=C/c1ccccc1Cl equals 0.00591

---

SETTINGS: in isopropanol, 316.55 K
RESULT TYPE: solubility (mole fraction)

The recorded solubility (mole fraction) for entry O=C(O)/C=C/c1ccccc1Cl equals 0.012

---

SETTINGS: in methanol, 321.55 K
RESULT TYPE: solubility (mole fraction)
Reply with the value as a number alone.

The recorded solubility (mole fraction) for entry O=C(O)/C=C/c1ccccc1Cl equals 0.01

---

SETTINGS: in methyl acetate, 283.35 K
RESULT TYPE: solubility (mole fraction)
Reply with the value as a number alone.

The recorded solubility (mole fraction) for entry O=C(O)/C=C/c1ccccc1Cl equals 0.00296

---

SETTINGS: in 2-pentanone, 283.35 K
RESULT TYPE: solubility (mole fraction)
Reply with the value as a number alone.

The recorded solubility (mole fraction) for entry O=C(O)/C=C/c1ccccc1Cl equals 0.00618

---

SETTINGS: in ethyl formate, 307.05 K
RESULT TYPE: solubility (mole fraction)
Reply with the value as a number alone.

The recorded solubility (mole fraction) for entry O=C(O)/C=C/c1ccccc1Cl equals 0.0041
